# System: platelet aggregation induced by ADP
# Method Notes: Platelet Aggregation-Inhibition Action 2 (ADP-induced, platelet-rich plasma)
# Type: cell-based
# Conditions Used: ADP 1-3 μM final, PRP, compound added one minute before ADP
Mark Y only for IC50 values smaller than 6 µM; exact matches and larger values are N.

{"columns": ["Molecule", "Class Label"],
 "data": [
  ["O=C(O)COc1cccc2c1CCN2CCSC(c1ccccc1)c1ccccc1 [Example 125]", "Y"],
  ["O=C(O)COc1cccc2c(COCCOC(c3ccccc3)c3ccccc3)coc12 [Example 59]", "Y"],
  ["Cc1oc2c(OCC(=O)O)cccc2c1CCSCCc1ccccc1 [Example 31]", "N"],
  ["O=C(O)COc1cccc2c1ccn2CCSC(c1ccccc1)c1ccccc1 [Example 112]", "Y"],
  ["O=C(O)COc1cccc2c(CC(O)CCC(c3ccccc3)c3ccccc3)coc12 (stereo not drawn) [Example 101]", "Y"],
  ["O=C(O)COc1cccc2c(CCSC(c3ccccc3)c3ccccc3)coc12 [Example 68]", "N"],
  ["O=C(O)COc1cccc2c(CCSC(c3ccccc3)c3ccccc3)c(CO)oc12 [Example 83]", "Y"],
  ["Cc1oc2c(OCC(=O)O)cccc2c1CNS(=O)(=O)CCc1ccccc1 [Example 16]", "N"],
  ["O=C(O)COc1cccc2c(CNS(=O)(=O)CCc3ccccc3)coc12 [Example 8]", "N"]
]}

* * *

Recorded IC50 values for a group of compounds are listed next.
# System: platelet aggregation induced by TXA2 agonist U-46619
# Method Notes: Platelet Aggregation-inhibition Action 1 (U-46619-induced, platelet-rich plasma)
# Assay type: cell-based
# Conditions Used: U-46619 1-4 μM final, PRP, compound added one minute before U-46619
Reported Endpoint: IC50 (nM)

{"columns": ["Compound", "Unit Abbreviation", "Test Value"],
 "data": [
  ["O=C(O)COc1cccc2c(CCSC(c3ccccc3)c3ccccc3)coc12", "nM", 900],
  ["Cc1oc2c(OCC(=O)O)cccc2c1CCNS(=O)(=O)CCc1ccccc1", "nM", 140],
  ["Cc1oc2c(OCC(=O)O)cccc2c1CNS(=O)(=O)CCc1ccccc1", "nM", 500],
  ["Cc1oc2c(OCC(=O)O)cccc2c1CC[S+]([O-])CCc1ccccc1 (centres unmarked)", "nM", 1600],
  ["Cc1oc2c(OCC(=O)O)cccc2c1CNS(=O)(=O)CCCc1ccccc1", "nM", 140]
]}

* * *

# Tested on: platelet aggregation induced by TXA2 agonist U-46619
# Method Notes: Platelet Aggregation-inhibition Action 1 (U-46619-induced, platelet-rich plasma)
# Assay type: cell-based
# Conditions Used: U-46619 1-4 μM final, PRP, compound added one minute before U-46619

{"columns": ["Smi", "Target Under Test", "IC50 / nM"],
 "data": [
  ["O=C(O)COc1cccc2c1ccn2CCNS(=O)(=O)c1ccccc1", "platelet aggregation induced by TXA2 agonist U-46619", 5100],
  ["O=C(O)COc1cccc2c(COCC=C(c3ccccc3)c3ccccc3)coc12", "platelet aggregation induced by TXA2 agonist U-46619", 710],
  ["Cc1oc2c(OCC(=O)O)cccc2c1CCSCCc1ccccc1", "platelet aggregation induced by TXA2 agonist U-46619", 440]
]}

* * *

We begin with a simple list: items and their reported IC50.
# Tested on: platelet aggregation induced by TXA2 agonist U-46619
# Method Notes: Platelet Aggregation-inhibition Action 1 (U-46619-induced, platelet-rich plasma)
# Assay type: cell-based
# Conditions Used: U-46619 1-4 μM final, PRP, compound added one minute before U-46619

{"columns": ["Smi", "Unit Abbreviation", "IC50"],
 "data": [
  ["C[C@H](COC(c1ccccc1)c1ccccc1)OCc1coc2c(OCC(=O)O)cccc12", "µM", 1.6],
  ["O=C(O)COc1cccc2c(CCOC(c3ccccc3)c3ccccc3)coc12", "µM", 4],
  ["Cc1oc2c(OCC(=O)O)cccc2c1CCON=C(c1ccccc1)c1ccccc1", "µM", 4.5],
  ["O=C(O)COc1cccc2c1ccn2CCCC(c1ccccc1)c1ccccc1", "µM", 1.7],
  ["O=C(O)COc1cccc2c(CCSC(c3ccccc3)c3ccccc3)c(CO)oc12", "µM", 0.46],
  ["Cc1oc2c(OCC(=O)O)cccc2c1CCSC(c1ccccc1)c1ccccc1", "µM", 0.64],
  ["O=C(O)COc1cccc2c1CCN2CCOCC(c1ccccc1)c1ccccc1", "µM", 1.4],
  ["Cc1oc2c(OCC(=O)O)cccc2c1CCS(=O)(=O)CCc1ccccc1", "µM", 1.1]
]}
